Measured IC50 of individual entries
biological target: PARG (Homo sapiens, UniProt Q86W56); assay: Inhibition of PARG enzymatic assay (TR-FRET enzymatic IC50 assay); assay type: biochemical; design: purchased Peak Proteins; conditions: hPARG 250 pM, biotinylated-PARylated PARP substrate 30 nM
Sequence (Q86W56 whole entry): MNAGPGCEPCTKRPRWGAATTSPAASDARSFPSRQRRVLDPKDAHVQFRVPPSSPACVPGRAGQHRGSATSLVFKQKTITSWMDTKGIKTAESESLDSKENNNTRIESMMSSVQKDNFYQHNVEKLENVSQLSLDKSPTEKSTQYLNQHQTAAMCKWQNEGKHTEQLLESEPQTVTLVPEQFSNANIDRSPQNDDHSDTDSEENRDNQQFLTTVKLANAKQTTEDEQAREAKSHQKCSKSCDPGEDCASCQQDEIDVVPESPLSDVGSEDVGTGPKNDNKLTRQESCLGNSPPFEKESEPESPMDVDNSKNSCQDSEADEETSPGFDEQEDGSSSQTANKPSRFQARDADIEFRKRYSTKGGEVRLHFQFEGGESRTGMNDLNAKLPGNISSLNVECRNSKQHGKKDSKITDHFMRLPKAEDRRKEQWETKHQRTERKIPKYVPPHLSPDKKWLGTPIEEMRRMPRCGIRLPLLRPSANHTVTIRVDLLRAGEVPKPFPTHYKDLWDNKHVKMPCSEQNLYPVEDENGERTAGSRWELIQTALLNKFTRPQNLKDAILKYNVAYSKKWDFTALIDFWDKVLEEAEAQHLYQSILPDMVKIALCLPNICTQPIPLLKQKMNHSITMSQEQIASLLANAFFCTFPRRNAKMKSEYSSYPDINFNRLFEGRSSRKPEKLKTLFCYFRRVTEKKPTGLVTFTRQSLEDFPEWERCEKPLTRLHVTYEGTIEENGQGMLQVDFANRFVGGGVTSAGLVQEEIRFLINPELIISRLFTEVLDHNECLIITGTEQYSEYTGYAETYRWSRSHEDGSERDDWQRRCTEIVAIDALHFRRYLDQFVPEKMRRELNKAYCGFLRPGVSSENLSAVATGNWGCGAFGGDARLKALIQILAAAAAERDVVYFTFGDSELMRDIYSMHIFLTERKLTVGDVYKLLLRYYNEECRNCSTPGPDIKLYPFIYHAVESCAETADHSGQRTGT

Below: 3 molecules and their reported IC50.
{"molecule": "CN(C)CCN(C)C(=O)N1CCN(c2cc(S(=O)(=O)NC3(C#N)CC3)cc3c2cnn3-c2nnc(C(F)F)s2)CC1 [Example 76]", "IC50": "≤ 100 nM"}
{"molecule": "N#CC1(NS(=O)(=O)c2cc(-c3c[nH]cn3)c3cnn(-c4nnc(C(F)F)s4)c3c2)CC1 [Example 9]", "IC50": "300 to 1000 nM"}
{"molecule": "N#CC1(NS(=O)(=O)c2cc(N3CCOCC3)c3cnn(-c4nnc(C(F)F)s4)c3c2)CC1 [Example 100]", "IC50": "100 to 300 nM"}

### Prompt Param item = CCCN(C)C(=O)N1CCN(c2cc(S(=O)(=O)NC3(C#N)CC3)cc3c2cnn3-c2nnc(C(F)F)s2)CC1 [Example 77] ; retrieve measured IC50.
### Response ≤ 100 nM
